Where these numbers come from: paper PMC5601625

System: U937
Test: Cell Titer Glo cell viability assay, 48 h
Format: cell-based, human
Settings: Homo sapiens, U-937; 48 h; mean of 2 independent experiments; 0 = less than 10 nM, cell line not given; read-out: IC50 of inhibitors on cell lines, m (mean)
Reported pIC50 is given for each of the following molecules.
# log scale: pIC50 equals minus log10 of the concentration in mol/L

COc1cc2c(Nc3ccc(Br)cc3F)ncnc2cc1OCC1CCN(C)CC1 [Vandetanib]    5.02
CC(C)(C)c1cnc(CSc2cnc(NC(=O)C3CCNCC3)s2)o1 [SNS-032]    7.15
CN(C)CCOc1cc(-c2cn[nH]c2)ccc1NC(=O)C1COc2ccccc2O1 (centres unmarked) [SR3677]    5.22

Here is the next item to consider.
Print U937 pIC50 for CNC(=O)c1cc(Oc2ccc(NC(=O)Nc3ccc(Cl)c(C(F)(F)F)c3)cc2)ccn1 [Sorafenib] .
5.27
